Tested on: TPA-induced ear edema
Test: TPA ear edema model
Conditions: topical 1.0%, formulated in 95% ethanol; ear biopsy weight six hours after TPA
Ends that are not written are not given here.
Each record is given label 1 if its reported Topical Dose (% change vs. vehicle) 1.0% is strictly below -50%. Records at or above -50% are given label 0.

Here are 3 substances together with their reported answers.
> print(dat)
                                  substance     experimentaltarget  assignedclass
1  WRWWKPKWRWPKW-NH2 [Peptide 11J02CN, W R W W K P K W R W P K W]  TPA-induced ear edema        label 0
2  R L W W Q Q W W R R (RLWWQQWWRR-{CN}) [Peptide 11F60CN]  TPA-induced ear edema        label 0
3  WRWWKVAWRWVKW-NH2 [Peptide 11J30CN, W R W W K V A W R W V K W]  TPA-induced ear edema        label 0

Input line: Hi there! Is Topical Dose (% change vs. vehicle) 1.0% for R L L V W W V L R R (RLLVWWVLRR-{CN}) [Peptide 11F82CN] below -50%, do you know?
Output line: label 1

Input line: Another substance to check: ILRWVWWVWRRK-NH2 [Peptide 11F4CN, I L R W V W W V W R R K]
Output line: label 1

Input line: Another substance to check: Y R Y Y K P K Y R Y P K Y (YRYYKPKYRYPKY-{CN}) [Peptide 11J32CN]
Output line: label 0

Input line: Another substance to check: I L T W P W W P W T T T (ILTWPWWPWTTT-{CN}) [Peptide 11B24CN]
Output line: label 0

Input line: Another substance to check: R L W V W W V W (RLWVWWVW-{CN}) [Peptide 11F11CN]
Output line: label 1

Input line: Another substance to check: R L W V V V V W R R (RLWVVVVWRR-{CN}) [Peptide 11F65CN]
Output line: label 1

Input line: Another substance to check: R L G G G G G G R R (RLGGGGGGRR-{CN}) [Peptide 11F83CN]
Output line: label 0

Input line: Another substance to check: I L Q W P W W P W Q Q Q (ILQWPWWPWQQQ-{CN}) [Peptide 11B38CN]
Output line: label 0

Input line: Another substance to check: H-ILRWVWRILR-CN (H-ILRWVWRILR-{CN}; not fully specified) [Peptide 11J131CN]
Output line: label 0

Input line: Another substance to check: W R L L K L A L R L L K W (WRLLKLALRLLKW-{CN}) [Peptide 11J44CN]
Output line: label 1

---

Below, each entry is listed with its recorded IC50 IL-10.
Test system: IL-10
Assay: Inhibition of cytokine production in PHA-activated PBLs (ELISA)
Format: cell-based
Settings: human PBLs, 10 μg/ml PHA, 48 hours, supernatant ELISA
Ends that are not written are not given here.
Response body: numeric value in µg/mL, unit text excluded.

Here's what some known entries look like.
> print(dat)
                                  substance  measuredvalue
1  WRWWKVAWRWVKW-NH2 [Peptide 11J30CN, W R W W K V A W R W V K W]             33
2  WRWWKPKWRWPKW-NH2 [Peptide 11J02CN, W R W W K P K W R W P K W]             23
3  RLVVWVVWRR-NH2 [Peptide 11F66CN, R L V V W V V W R R]             40
4  RLWVWWVWRRK-NH2 [Peptide 11F12CN, R L W V W W V W R R K]             30

Could you now consider this next substance?
Input line: Look up IC50 IL-10 for this substance: RLWVWWVWRR-NH2 [Peptide 11F17CN, R L W V W W V W R R]
Output line: 18
